The molecules listed here are annotated with their Activity.
system: B16-F10; assay: Induction of apoptosis in mouse B16F10 cells assessed as early apoptotic cells at 2 uM after 45 hrs by annexinV-FITC/propidium iodide staining-based flow cytometric analysis (reference value: 0.1%); type: functional
Please give a number only; it is taken to be in %.

1. C=C(C)[C@@H]1CC[C@]2(C(=O)NCCCOc3ccc(/C(=C4\C(=O)N(Cc5ccc(OC)cc5)c5ccccc54)c4ccc(O)cc4)cc3)CC[C@]3(C)[C@H](CC[C@@H]4[C@@]5(C)CC[C@H](O)C(C)(C)[C@@H]5CC[C@]43C)[C@@H]12 3.8
2. COc1ccc(CN2C(=O)C(=C(c3ccc(O)cc3)c3ccc(O)cc3)c3ccccc32)cc1 0.2
3. COc1cccc2c1C(=O)c1c(O)c3c(c(O)c1C2=O)C[C@@](O)(C(=O)CO)C[C@@H]3O[C@H]1C[C@H](N)[C@H](O)[C@H](C)O1 1.1

Read off the recorded Activity for COc1ccc(CN2C(=O)/C(=C(/c3ccc(O)cc3)c3ccc(OCCCN)cc3)c3ccccc32)cc1
0

Read off the recorded Activity for C=C(C)[C@@H]1CC[C@]2(C(=O)O)CC[C@]3(C)[C@H](CC[C@@H]4[C@@]5(C)CC[C@H](O)C(C)(C)[C@@H]5CC[C@]43C)[C@@H]12
0.3

* * *

system: B16-F10; experiment: Induction of apoptosis in mouse B16F10 cells assessed as viable cells at 2 uM after 45 hrs by annexinV-FITC/propidium iodide staining-based flow cytometric analysis (reference value: 90.1%); format: functional; settings: B16-F10, 45 h, read-out: Activity
Consider the cut-off 90%. If the recorded viability at 2 µM is strictly smaller, the label is MET; if not, the label is NOT MET.

Please review the following examples before continuing.
1. C=C(C)[C@@H]1CC[C@]2(C(=O)O)CC[C@]3(C)[C@H](CC[C@@H]4[C@@]5(C)CC[C@H](O)C(C)(C)[C@@H]5CC[C@]43C)[C@@H]12 NOT MET
2. COc1ccc(CN2C(=O)C(=C(c3ccc(O)cc3)c3ccc(O)cc3)c3ccccc32)cc1 NOT MET
3. COc1cccc2c1C(=O)c1c(O)c3c(c(O)c1C2=O)C[C@@](O)(C(=O)CO)C[C@@H]3O[C@H]1C[C@H](N)[C@H](O)[C@H](C)O1 MET

API: query returns whether the compound falls strictly under 90% in viability at 2 µM. Query: C=C(C)[C@@H]1CC[C@]2(C(=O)NCCCOc3ccc(/C(=C4\C(=O)N(Cc5ccc(OC)cc5)c5ccccc54)c4ccc(O)cc4)cc3)CC[C@]3(C)[C@H](CC[C@@H]4[C@@]5(C)CC[C@H](O)C(C)(C)[C@@H]5CC[C@]43C)[C@@H]12
MET

* * *

The compounds listed here are annotated with their Activity.
tested on: B16-F10; assay: Induction of apoptosis in mouse B16F10 cells assessed as late apoptotic cells at 2 uM after 45 hrs by annexinV-FITC/propidium iodide staining-based flow cytometric analysis (reference value: 0.8%); format: functional
Please give a number only; it is taken to be in %.

Example compounds with recorded Activity:
1. COc1cccc2c1C(=O)c1c(O)c3c(c(O)c1C2=O)C[C@@](O)(C(=O)CO)C[C@@H]3O[C@H]1C[C@H](N)[C@H](O)[C@H](C)O1 21.4
2. C=C(C)[C@@H]1CC[C@]2(C(=O)NCCCOc3ccc(/C(=C4\C(=O)N(Cc5ccc(OC)cc5)c5ccccc54)c4ccc(O)cc4)cc3)CC[C@]3(C)[C@H](CC[C@@H]4[C@@]5(C)CC[C@H](O)C(C)(C)[C@@H]5CC[C@]43C)[C@@H]12 54.6
3. COc1ccc(CN2C(=O)/C(=C(/c3ccc(O)cc3)c3ccc(OCCCN)cc3)c3ccccc32)cc1 0.9
4. COc1ccc(CN2C(=O)C(=C(c3ccc(O)cc3)c3ccc(O)cc3)c3ccccc32)cc1 1.7

Now examine the next entry.
Read off the recorded Activity for C=C(C)[C@@H]1CC[C@]2(C(=O)O)CC[C@]3(C)[C@H](CC[C@@H]4[C@@]5(C)CC[C@H](O)C(C)(C)[C@@H]5CC[C@]43C)[C@@H]12
0.9

* * *

experiment: Induction of reactive oxygen species generation in mouse NIH/3T3 cells at 2 uM after 36 hrs by DCFDA dye-based fluorescence microscopic analysis; type: cell-based; conditions: nih3t3, 36 h
REPORTED_ENDPOINT: Activity

1) C=C(C)[C@@H]1CC[C@]2(C(=O)O)CC[C@]3(C)[C@H](CC[C@@H]4[C@@]5(C)CC[C@H](O)C(C)(C)[C@@H]5CC[C@]43C)[C@@H]12 Non-toxic
2) C=C(C)[C@@H]1CC[C@]2(C(=O)NCCCOc3ccc(/C(=C4\C(=O)N(Cc5ccc(OC)cc5)c5ccccc54)c4ccc(O)cc4)cc3)CC[C@]3(C)[C@H](CC[C@@H]4[C@@]5(C)CC[C@H](O)C(C)(C)[C@@H]5CC[C@]43C)[C@@H]12 Non-toxic
3) COc1ccc(CN2C(=O)C(=C(c3ccc(O)cc3)c3ccc(O)cc3)c3ccccc32)cc1 Non-toxic
4) COc1ccc(CN2C(=O)/C(=C(/c3ccc(O)cc3)c3ccc(OCCCN)cc3)c3ccccc32)cc1 Non-toxic

Now examine the next entry.
Read off the recorded Activity for COc1cccc2c1C(=O)c1c(O)c3c(c(O)c1C2=O)C[C@@](O)(C(=O)CO)C[C@@H]3O[C@H]1C[C@H](N)[C@H](O)[C@H](C)O1
Toxic

* * *

experiment: Cellular uptake in mouse NIH/3T3 cells at 2 uM after 4 hrs by fluorescence microscopic analysis; assay type: ADME, cell-based; details: nih3t3, 4 h
REPORTED_ENDPOINT: Drug uptake

Example compounds with recorded Drug uptake:
COMPOUND	Drug uptake
COc1cccc2c1C(=O)c1c(O)c3c(c(O)c1C2=O)C[C@@](O)(C(=O)CO)C[C@@H]3O[C@H]1C[C@H](N)[C@H](O)[C@H](C)O1 [DOXORUBICIN]	Active
COc1ccc(CN2C(=O)C(=C(c3ccc(O)cc3)c3ccc(O)cc3)c3ccccc32)cc1	Active
C=C(C)[C@@H]1CC[C@]2(C(=O)NCCCOc3ccc(/C(=C4\C(=O)N(Cc5ccc(OC)cc5)c5ccccc54)c4ccc(O)cc4)cc3)CC[C@]3(C)[C@H](CC[C@@H]4[C@@]5(C)CC[C@H](O)C(C)(C)[C@@H]5CC[C@]43C)[C@@H]12	Not Active
C=C(C)[C@@H]1CC[C@]2(C(=O)NCCCNC(=S)Nc3ccc4c(c3)C(=O)OC43c4ccc(O)cc4Oc4cc(O)ccc43)CC[C@]3(C)[C@H](CC[C@@H]4[C@@]5(C)CC[C@H](O)C(C)(C)[C@@H]5CC[C@]43C)[C@@H]12	Not Active

Now examine the next entry.
Read off the recorded Drug uptake for COc1ccc(CN2C(=O)/C(=C(/c3ccc(O)cc3)c3ccc(OCCCN)cc3)c3ccccc32)cc1
Not Active

* * *

test system: OVCAR-3; test: Cytotoxicity against human OVCAR3 cells assessed as cell killing effect after 72 hrs by MTT assay; assay type: functional, cell-based; settings: OVCAR-3, 72 h
REPORTED_ENDPOINT: pIC50
The value called pIC50 is obtained by taking minus log10 of the concentration in mol/L.

1. C=C(C)[C@@H]1CC[C@]2(C(=O)O)CC[C@]3(C)[C@H](CC[C@@H]4[C@@]5(C)CC[C@H](O)C(C)(C)[C@@H]5CC[C@]43C)[C@@H]12 5.08

Read off the recorded pIC50 for C=C(C)[C@@H]1CC[C@]2(C(=O)NCCCOc3ccc(/C(=C4\C(=O)N(Cc5ccc(OC)cc5)c5ccccc54)c4ccc(O)cc4)cc3)CC[C@]3(C)[C@H](CC[C@@H]4[C@@]5(C)CC[C@H](O)C(C)(C)[C@@H]5CC[C@]43C)[C@@H]12
5.22

* * *

test system: B16-F10; test: Induction of apoptosis in mouse B16F10 cells assessed as necrotic cells at 2 uM after 45 hrs by annexinV-FITC/propidium iodide staining-based flow cytometric analysis (reference value: 9%); type: functional
Consider the cut-off 5%. If the recorded Activity is strictly smaller, the label is class 1; if not, the label is class 0.

Please review the following examples before continuing.
1. C=C(C)[C@@H]1CC[C@]2(C(=O)O)CC[C@]3(C)[C@H](CC[C@@H]4[C@@]5(C)CC[C@H](O)C(C)(C)[C@@H]5CC[C@]43C)[C@@H]12 class 1
2. COc1ccc(CN2C(=O)/C(=C(/c3ccc(O)cc3)c3ccc(OCCCN)cc3)c3ccccc32)cc1 class 0

Next item in the queue.
API: query returns whether the compound falls strictly under 5% in Activity. Query: COc1cccc2c1C(=O)c1c(O)c3c(c(O)c1C2=O)C[C@@](O)(C(=O)CO)C[C@@H]3O[C@H]1C[C@H](N)[C@H](O)[C@H](C)O1
class 0

* * *

test: Cytotoxicity against mouse B16F10 cells assessed as cell killing effect after 72 hrs by MTT assay; assay type: functional, cell-based; settings: B16-F10, 72 h
pIC50: −log10 of the molar value.
REPORTED_ENDPOINT: pIC50

Example molecules with recorded pIC50:
MOLECULE	pIC50
C=C(C)[C@@H]1CC[C@]2(C(=O)O)CC[C@]3(C)[C@H](CC[C@@H]4[C@@]5(C)CC[C@H](O)C(C)(C)[C@@H]5CC[C@]43C)[C@@H]12 [BETULINIC ACID]	< 4.70
COc1ccc(CN2C(=O)/C(=C(/c3ccc(O)cc3)c3ccc(OCCCN)cc3)c3ccccc32)cc1	< 4.70

Now examine the next entry.
Read off the recorded pIC50 for COc1ccc(CN2C(=O)C(=C(c3ccc(O)cc3)c3ccc(O)cc3)c3ccccc32)cc1
< 4.70
